- Tested on: C. glabrata
- assay_details: Checkerboard FIC assay in combination with fluconazole (MIC alone and in combination, FICI)
- Format: cell-based, Candida glabrata
- assay_context: in combination with fluconazole, C. glabrata; fluconazole MIC lowered to 8 ug/mL
readout_name: Concentration of Methylgene compound to synergize fluconazole MIC to 8 ug/mL (mg/L)

Below, each entry is followed by its recorded Concentration of Methylgene compound to synergize fluconazole MIC to 8 ug/mL result.
stdin: Need Concentration of Methylgene compound to synergize fluconazole MIC to 8 ug/mL, item `Cn1cnc(CNC(=O)c2ccc(CCCCc3ccc(CC(=O)NO)cc3)cc2)c1`
stdout: 2

stdin: Need Concentration of Methylgene compound to synergize fluconazole MIC to 8 ug/mL, item CC(C(=O)NO)c1ccc(CCCCc2ccccc2)cc1 (centres unmarked)
stdout: 0.06

stdin: Need Concentration of Methylgene compound to synergize fluconazole MIC to 8 ug/mL, item `COCCOCCOCCOCCOCCOc1ccc(CCCCc2ccc(CC(=O)NO)cc2)cc1`
stdout: 0.25

I: CN1CCN(CCS(=O)(=O)Nc2ccc(CCCCc3ccc(CC(=O)NO)cc3)cc2)CC1
II: O=C(Cc1ccc(CCCCc2cccc(NC(=O)CO)c2)cc1)NO
stdin: Given I and given II , which shows the smaller recorded Concentration of Methylgene compound to synergize fluconazole MIC to 8 ug/mL? Answer by stating the label of the chosen item.
stdout: II

----------
- Test system: C. glabrata
- assay_details: Checkerboard FIC assay in combination with fluconazole (MIC alone and in combination, FICI)
- Format: cell-based, Candida glabrata
- assay_context: C. glabrata; FICI using a fluconazole MIC of 128 μg/mL
readout_name: FICI of combination resulting in fluconazole MIC of: 8 ug/mL (value in parenthesis)

stdin: Need FICI of combination resulting in fluconazole MIC of: 8 ug/mL (value in parenthesis), item CN1CCC(C(=O)Nc2ccc(CCCCc3ccc(CC(=O)NO)cc3)cc2)CC1.Cl [Example 34]
stdout: 0.188

stdin: Need FICI of combination resulting in fluconazole MIC of: 8 ug/mL (value in parenthesis), item COCCOCCOCC(=O)Nc1cccc(CCCCc2ccc(CC(=O)NO)cc2)c1 [Example 40]
stdout: 0.188

stdin: Need FICI of combination resulting in fluconazole MIC of: 8 ug/mL (value in parenthesis), item Cn1cnc(CNC(=O)c2ccc(CCCCc3ccc(CC(=O)NO)cc3)cc2)c1 [Example 23]
stdout: 0.188

stdin: Need FICI of combination resulting in fluconazole MIC of: 8 ug/mL (value in parenthesis), item O=C(Cc1ccc(CCC(O)Cc2ccccc2)cc1)NO (centres unmarked) [Example 57]
stdout: 0.313

I: O=C(Cc1ccc(CCCCc2ccc(O)c(O)c2)cc1)NO [Example 19]
II: O=C(Cc1ccc(CCCC(F)c2ccccc2)cc1)NO (centres unmarked) [Example 26]
III: O=C(Cc1ccc(CCCCC2CCCCC2)cc1)NO [Example 8]
IV: O=C(Cc1ccc(CCCCc2ccc(C(=O)N3CCN(CCn4ccnc4)CC3)cc2)cc1)NO [Example 21]
stdin: Please list these in order of increasing FICI of combination resulting in fluconazole MIC of: 8 ug/mL (value in parenthesis). Thank you! # the answer lists labels in the order requested
stdout: II, IV, I, III
(II: 0.125, IV: 0.188, I: 0.313, III: 0.543)

I: CN(C)CCSCC(=O)Nc1cccc(CCCCc2ccc(CC(=O)NO)cc2)c1 [Example 44]
II: O=C(Cc1ccc(CCCC(F)(F)c2ccccc2)cc1)NO [Example 29]
III: Cn1ccc2cc(CCCCc3ccc(CC(=O)NO)cc3)ccc21 [Example 6]
stdin: Kindly order the items shown according to FICI of combination resulting in fluconazole MIC of: 8 ug/mL (value in parenthesis), from the highest value down. # the answer lists labels in the order requested
stdout: II, III, I
(II: 0.313, III: 0.183, I: 0.125)

I: COC(=O)Nc1ccc(CCCCc2ccc(CC(=O)NO)cc2)cc1 [Example 48]
II: CC(CCCc1ccc(CC(=O)NO)cc1)c1ccccc1 (centres unmarked) [Example 30]
stdin: Kindly identify which of I and II has the larger recorded FICI of combination resulting in fluconazole MIC of: 8 ug/mL (value in parenthesis) value. Answer by stating the label of the chosen item.
stdout: II

----------
- Tested on: C. glabrata
- assay_details: Checkerboard FIC assay in combination with fluconazole (MIC alone and in combination, FICI)
- Format: cell-based, Candida glabrata
- assay_context: in combination with fluconazole, C. glabrata; fluconazole MIC lowered to 8 ug/mL
readout_name: Concentration of Methylgene compound to synergize fluconazole MIC to 8 ug/mL (µg/mL)

stdin: Need Concentration of Methylgene compound to synergize fluconazole MIC to 8 ug/mL, item `O=C(Cc1ccc(CCCCc2ccc(CC(=O)NO)cc2)cc1)NO`
stdout: 0.25

I: CN1CCN(CCNC(=O)Nc2cccc(CCCCc3ccc(CC(=O)NO)cc3)c2)CC1
II: CN1CCC(C(=O)Nc2ccc(CCCCc3ccc(CC(=O)NO)cc3)cc2)CC1.Cl
stdin: Kindly identify which of I and II has the larger recorded Concentration of Methylgene compound to synergize fluconazole MIC to 8 ug/mL value. Answer by stating the label of the chosen item.
stdout: I
(I: 2 µg/mL, II: 1 µg/mL)

1: O=C(Cc1ccc(CCCCc2ccc(F)cc2F)cc1)NO
2: O=C(Cc1ccc(CCCCc2ccc(C(=O)N3CCN(C/C=C/c4ccccc4)CC3)cc2)cc1)NO
3: O=C(Cc1ccc(CCCCc2ccc(NC(=O)CO)cc2)cc1)NO
stdin: Kindly order the items shown according to Concentration of Methylgene compound to synergize fluconazole MIC to 8 ug/mL, from the highest value down. # the answer lists labels in the order requested
stdout: 3, 2, 1

P: O=C(Cc1ccc(CCCCC2CCCCC2)cc1)NO
Q: COCCOCCOCCNS(=O)(=O)c1ccc(CCCCc2ccc(CC(=O)NO)cc2)cc1
stdin: Given P and given Q , which shows the smaller recorded Concentration of Methylgene compound to synergize fluconazole MIC to 8 ug/mL? Answer by stating the label of the chosen item.
stdout: P
(P: 0.12 µg/mL, Q: 2 µg/mL)

----------
- Tested on: C. glabrata
- assay_details: Checkerboard FIC assay in combination with fluconazole (MIC alone and in combination, FICI)
- Assay type: cell-based, Candida glabrata
- assay_context: in combination with fluconazole, C. glabrata; fluconazole MIC lowered to 8 ug/mL
readout_name: Concentration of Methylgene compound to synergize fluconazole MIC to 8 ug/mL (µg/mL)

Below, each entry is followed by its recorded Concentration of Methylgene compound to synergize fluconazole MIC to 8 ug/mL result.
stdin: Need Concentration of Methylgene compound to synergize fluconazole MIC to 8 ug/mL, item `O=C(Cc1ccc(CCCCc2ccc(OCCCN3CCOCC3)cc2)cc1)NO`
stdout: 0.25

stdin: Need Concentration of Methylgene compound to synergize fluconazole MIC to 8 ug/mL, item `Cc1ccc(CCCCc2ccc(CC(=O)NO)cc2)cc1`
stdout: 0.06

stdin: Need Concentration of Methylgene compound to synergize fluconazole MIC to 8 ug/mL, item `O=C(Cc1ccc(CCC/C(=N\O)c2ccccc2)cc1)NO`
stdout: 2

1: O=C(Cc1ccc(CCCCc2cccc(NC(=O)NCCN3CCOCC3)c2)cc1)NO
2: O=C(Cc1ccc(CCCCc2ccccc2NC(=O)CO)cc1)NO
stdin: Kindly identify which of 1 and 2 has the larger recorded Concentration of Methylgene compound to synergize fluconazole MIC to 8 ug/mL value. Answer by stating the label of the chosen item.
stdout: 2

a: CC(=O)Nc1ccccc1CCCCc1ccc(CC(=O)NO)cc1
b: Nc1ccccc1CCCCc1ccc(CC(=O)NO)cc1
stdin: Kindly identify which of a and b has the larger recorded Concentration of Methylgene compound to synergize fluconazole MIC to 8 ug/mL value. Answer by stating the label of the chosen item.
stdout: a

1: O=C(Cc1ccc(CCCCc2ccc(O)cc2)cc1)NO
2: CC(C)(C(=O)NO)c1ccc(CCCCc2ccccc2)cc1
stdin: Given 1 and given 2 , which shows the smaller recorded Concentration of Methylgene compound to synergize fluconazole MIC to 8 ug/mL? Answer by stating the label of the chosen item.
stdout: 2
(2: 0.12 µg/mL, 1: 1 µg/mL)

1: O=C(Cc1ccc(CCCCc2cccc(NS(=O)(=O)CCN3CCOCC3)c2)cc1)NO
2: O=C(Cc1ccc(C(F)CCCc2ccccc2)cc1)NO (centres unmarked)
stdin: Given 1 and given 2 , which shows the smaller recorded Concentration of Methylgene compound to synergize fluconazole MIC to 8 ug/mL? Answer by stating the label of the chosen item.
stdout: 2
(2: 0.5 µg/mL, 1: 2 µg/mL)

----------
- Tested on: C. glabrata
- assay_details: Checkerboard FIC assay in combination with fluconazole (MIC alone and in combination, FICI)
- Type: cell-based, Candida glabrata
- assay_context: C. glabrata; FICI using a fluconazole MIC of 128 μg/mL
readout_name: FICI of combination resulting in fluconazole MIC of: 4 ug/mL (value in parenthesis)

Below, each entry is followed by its recorded FICI of combination resulting in fluconazole MIC of: 4 ug/mL (value in parenthesis) result.
stdin: Need FICI of combination resulting in fluconazole MIC of: 4 ug/mL (value in parenthesis), item O=C(Cc1ccc(CCCCc2ccc(O)c(O)c2)cc1)NO [Example 19]
stdout: 0.281

stdin: Need FICI of combination resulting in fluconazole MIC of: 4 ug/mL (value in parenthesis), item COCCOCCOCC(=O)Nc1ccc(CCCCc2ccc(CC(=O)NO)cc2)cc1 [Example 35]
stdout: 0.281

stdin: Need FICI of combination resulting in fluconazole MIC of: 4 ug/mL (value in parenthesis), item O=C(Cc1csc(CCCCc2ccccc2)n1)NO [Example 1]
stdout: 0.281

stdin: Need FICI of combination resulting in fluconazole MIC of: 4 ug/mL (value in parenthesis), item COCCOCCOCCOCCC(=O)Nc1ccc(CCCCc2ccc(CC(=O)NO)cc2)cc1 [Example 37]
stdout: 0.281

1: O=C(Cc1ccc(CCCCc2ccc(NC(=O)NCCN3CCOCC3)cc2)cc1)NO [Example 47]
2: O=C(Cc1ccc(CCCCc2ccc(F)cc2F)cc1)NO [Example 3]
stdin: Kindly identify which of 1 and 2 has the larger recorded FICI of combination resulting in fluconazole MIC of: 4 ug/mL (value in parenthesis) value. Answer by stating the label of the chosen item.
stdout: 2
(2: 0.531, 1: 0.281)

meta.source: patent US20140081017A1
